Biological target: Acetylcholinesterase (Homo sapiens, UniProt P22303)
Sequence (P22303 whole entry): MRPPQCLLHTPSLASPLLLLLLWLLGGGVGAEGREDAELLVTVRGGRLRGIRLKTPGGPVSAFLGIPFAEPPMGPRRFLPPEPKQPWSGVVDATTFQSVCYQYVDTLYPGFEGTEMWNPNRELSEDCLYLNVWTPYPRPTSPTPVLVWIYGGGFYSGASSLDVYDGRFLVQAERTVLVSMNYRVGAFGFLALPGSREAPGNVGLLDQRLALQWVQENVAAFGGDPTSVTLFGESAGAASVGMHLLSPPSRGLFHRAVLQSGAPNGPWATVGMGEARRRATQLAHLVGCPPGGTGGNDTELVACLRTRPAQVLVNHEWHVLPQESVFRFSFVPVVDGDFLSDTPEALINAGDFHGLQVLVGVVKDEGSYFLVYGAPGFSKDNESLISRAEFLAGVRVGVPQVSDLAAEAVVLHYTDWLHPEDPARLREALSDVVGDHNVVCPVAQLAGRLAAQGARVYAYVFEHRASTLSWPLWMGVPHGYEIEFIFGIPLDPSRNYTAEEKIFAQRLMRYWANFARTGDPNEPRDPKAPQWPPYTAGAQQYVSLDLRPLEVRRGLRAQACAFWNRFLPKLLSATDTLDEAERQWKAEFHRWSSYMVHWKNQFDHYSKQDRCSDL
Experiment: Mixed-type inhibition of recombinant human AChE assessed as inhibition constant using acetylthiocholine iodide as substrate by Cornish-Bowden plot analysis
Measure: pKi
Hey, just a heads up that pKi is the negative log base 10 of the concentration in molar.

Qu. # query: pKi of entry COc1cc(CNC(=O)CCCCCCNc2c3c(nc4cc(Cl)ccc24)CC2C=C(C)CC3C2)ccc1O (stereo unspecified)
Ans. 9.17

====

Assay: Selectivity index, ratio of IC50 for human serum BChE using butyrylthiocholineiodide as substrate to IC50 for recombinant human AChE using acetylthiocholine iodide as substrate
Measure: Ratio IC50
# answer = number (no unit)

Qu. Please give the measured Ratio IC50 for this molecule: COc1cc(CNC(=O)CCCCCCCCNc2c3c(nc4cc(Cl)ccc24)CC2C=C(C)CC3C2)ccc1O (centres undefined)
Ans. 12.3

Qu. What does the data say about its Ratio IC50? Entry: COc1cc(CNC(=O)CCCCCCCNc2c3c(nc4cc(Cl)ccc24)CC2C=C(C)CC3C2)ccc1O (centres undefined)
Ans. 26.7

Qu. // query Ratio IC50 value for entry COc1cc(CNC(=O)CCCC/C=C/CNc2c3c(nc4cc(Cl)ccc24)CC2C=C(C)CC3C2)ccc1O (centres undefined)
Ans. 17.7

Qu. If you can, please state the reported Ratio IC50 value of COc1cc(CNC(=O)CCCCCCNc2c3c(nc4cc(Cl)ccc24)CC2C=C(C)CC3C2)ccc1O (centres undefined) .
Ans. 39.7

Qu. Form field: reported Ratio IC50 of COc1cc(CNC(=O)CCCCCNc2c3c(nc4cc(Cl)ccc24)CC2C=C(C)CC3C2)ccc1O (centres undefined)
Ans. 16.1

Qu. Item under review: COc1cc(CNC(=O)c2ccc(CNc3c4c(nc5cc(Cl)ccc35)CC3C=C(C)CC4C3)cc2)ccc1O (centres undefined) . Reported Ratio IC50?
Ans. 11.6

Qu. I am curious: what Ratio IC50 value has been reported for COc1cc(CNC(=O)Cc2cn(CCCCC3=CC4Cc5nc6cc(Cl)ccc6c(N)c5C(C3)C4)nn2)ccc1O (centres undefined) ?
Ans. 6.9

Qu. Any idea what Ratio IC50 was measured for COc1cc(CNC(=O)CCCCNc2c3c(nc4cc(Cl)ccc24)CC2C=C(C)CC3C2)ccc1O (centres undefined) ?
Ans. 9.5

Qu. Look at this molecule and give its reported Ratio IC50. COc1cc(CNC(=O)CCCC/C=C/CCCNc2c3c(nc4cc(Cl)ccc24)CC2C=C(C)CC3C2)ccc1O (centres undefined)
Ans. 9.4
